biological target: wild-type human ALK (cytoplasmic domain, amino acids 1058-1620, N-terminal GST fusion) (Homo sapiens, UniProt Q9UM73); construct: The cytoplasmic domain (amino acids 1058-1620) of wild-type human ALK; GST (N); made in house; host or cells: SF9 insect cells; test: ALK Inhibition in Enzyme Assay (Lance TR-FRET kinase assay); type: biochemical
Sequence (Q9UM73 1058-1620): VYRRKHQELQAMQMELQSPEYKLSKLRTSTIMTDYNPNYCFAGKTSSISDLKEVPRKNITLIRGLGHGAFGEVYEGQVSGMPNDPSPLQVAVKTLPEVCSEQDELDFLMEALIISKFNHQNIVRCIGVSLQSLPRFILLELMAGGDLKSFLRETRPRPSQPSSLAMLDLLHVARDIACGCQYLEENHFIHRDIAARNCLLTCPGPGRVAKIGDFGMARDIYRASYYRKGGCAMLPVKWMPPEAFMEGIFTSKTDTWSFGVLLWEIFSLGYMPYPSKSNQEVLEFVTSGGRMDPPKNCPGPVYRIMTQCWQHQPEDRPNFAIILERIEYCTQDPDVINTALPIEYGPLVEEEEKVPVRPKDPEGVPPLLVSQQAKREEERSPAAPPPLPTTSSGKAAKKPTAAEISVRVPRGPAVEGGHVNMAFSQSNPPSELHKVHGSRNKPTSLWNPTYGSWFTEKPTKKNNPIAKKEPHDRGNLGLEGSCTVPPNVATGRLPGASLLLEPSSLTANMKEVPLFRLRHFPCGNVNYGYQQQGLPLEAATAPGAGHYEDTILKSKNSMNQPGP
We begin with a simple list: items and their reported IC50.

CC(C)NC(=O)[C@H]1CC[C@@H](n2/c(=N/C(=O)c3ccc(F)cc3)[nH]c3ccc(CN4CCN(S(C)(=O)=O)CC4)cc32)CC1 ... < 50 nM

Okay, now this molecule:
*Q* Entry CONC(=O)[C@H]1CC[C@@H](n2/c(=N/C(=O)c3ccc(F)cc3)[nH]c3ccc(CN4CCOCC4)cc32)CC1 has what IC50?
*A* < 50 nM

----------
target: wild-type human ALK (cytoplasmic domain, amino acids 1058-1620, N-terminal GST fusion) (Homo sapiens, UniProt Q9UM73); construct: The cytoplasmic domain (amino acids 1058-1620) of wild-type human ALK; GST (N); made in house; host or cells: SF9 insect cells; assay: ALK Inhibition in Enzyme Assay (Lance TR-FRET kinase assay); assay type: biochemical
pIC50: −log10 of the molar value.
We begin with a simple list: items and their reported pIC50.

C[C@H]1CN(C(=O)[C@H]2CC[C@@H](n3/c(=N/C(=O)c4ccccc4)[nH]c4cnc(OCCN5CCCCC5)cc43)CC2)CCN1 ... 7.00 to 7.30
CC(C)NC(=O)[C@H]1CC[C@@H](n2/c(=N/C(=O)c3ccc(F)cc3)[nH]c3cnc(N4CCN(S(C)(=O)=O)CC4)cc32)CC1 ... > 7.30
COC(=O)[C@H]1CC[C@@H](n2c(NC(=O)c3ccccc3)nc3ccc(CN4CCOCC4)cc32)CC1 ... > 7.30

*Q* Entry CC(C)NC(=O)[C@H]1CC[C@@H](n2/c(=N/C(=O)c3ccc(F)cc3)[nH]c3ccc(OCCN4CCCCC4)cc32)CC1 has what pIC50?
*A* > 7.30

*Q* Entry C=CCNS(=O)(=O)c1cccc(C(=O)Nc2nc3ccc(CN4CCCCC4)cc3n2C23CC4CC(CC(C4)C2)C3)c1 has what pIC50?
*A* > 7.30

*Q* Entry CC(C)S(=O)(=O)N1CCC(n2/c(=N/C(=O)c3ccccc3)[nH]c3cnc(OCCN4CCCCC4)cc32)CC1 has what pIC50?
*A* 6.00 to 7.00

----------
target: wild-type human ALK (cytoplasmic domain, amino acids 1058-1620, N-terminal GST fusion) (Homo sapiens); construct: The cytoplasmic domain (amino acids 1058-1620) of wild-type human ALK; GST (N); made in house; host or cells: SF9 insect cells; test: ALK Inhibition in Enzyme Assay (Lance TR-FRET kinase assay); format: biochemical
We begin with a simple list: items and their reported IC50.

Example molecules with recorded IC50:
O=C(/N=c1\[nH]c2cnc(OCCN3CCCCC3)cc2n1[C@H]1CC[C@@H](C(=O)O)CC1)c1ccccc1 ... 1000 to 5000 nM
CNS(=O)(=O)N1CCC(n2/c(=N/C(=O)c3ccccc3)[nH]c3cnc(OCCN4CCCCC4)cc32)CC1 ... 100 to 1000 nM
NC(=O)[C@H]1CC[C@H](n2/c(=N/C(=O)c3ccc(F)cc3)[nH]c3cnc(OCCN4CCCCC4)cc32)CC1 ... 1000 to 5000 nM

Okay, now this molecule:
*Q* Entry O=C(/N=c1\[nH]c2cnc(OCCN3CCCCC3)cc2n1C1CCNCC1)c1ccccc1 has what IC50?
*A* 1000 to 5000 nM

----------
We begin with a simple list: items and their reported IC50.
molecular target: wild-type human ALK (cytoplasmic domain, amino acids 1058-1620, N-terminal GST fusion) (Homo sapiens); construct: The cytoplasmic domain (amino acids 1058-1620) of wild-type human ALK; GST (N); made in house; host or cells: SF9 insect cells; assay: ALK Inhibition in Enzyme Assay (Lance TR-FRET kinase assay); assay type: biochemical

CN1CCN(C(=O)[C@H]2CC[C@@H](n3/c(=N/C(=O)c4ccc(F)cc4)[nH]c4ccc(CN5CCOCC5)cc43)CC2)CC1 ... 0.1 to 1 µM
CC(C)(O)C1CCN(Cc2ccc3[nH]/c(=N\C(=O)c4ccc(F)cc4)n([C@H]4CC[C@H](C(N)=O)CC4)c3c2)CC1 ... 0.05 to 0.1 µM
CC(C)NC(=O)[C@H]1CC[C@@H](n2/c(=N/C(=O)c3ccc(F)cc3)[nH]c3ccc(CN4CCN(CCO)CC4)cc32)CC1 ... < 0.05 µM
O=C(/N=c1\[nH]c2ccc(CN3CCOCC3)cc2n1[C@H]1CC[C@@H](C(=O)NO)CC1)c1ccc(F)cc1 ... 0.05 to 0.1 µM
CC(C)NC(=O)[C@H]1CC[C@@H](n2/c(=N/C(=O)c3cc(F)cc(C#N)c3)[nH]c3cnc(OCCN4CCCCC4)cc32)CC1 ... < 0.05 µM

Okay, now this compound:
*Q* Entry N#C[C@]1(c2ccccn2)C[C@@H](n2/c(=N/C(=O)c3ccc(F)cc3)[nH]c3cnc(OCCN4CCCCC4)cc32)C1 has what IC50?
*A* 1 to 5 µM

----------
target: wild-type human ALK (cytoplasmic domain, amino acids 1058-1620, N-terminal GST fusion) (Homo sapiens); construct: The cytoplasmic domain (amino acids 1058-1620) of wild-type human ALK; GST (N); made in house; host or cells: SF9 insect cells; assay: ALK Inhibition in Enzyme Assay (Lance TR-FRET kinase assay); assay type: biochemical
We begin with a simple list: items and their reported IC50.

Example molecules with recorded IC50:
CC(C)NC(=O)[C@H]1CC[C@@H](n2/c(=N/C(=O)c3ccncc3)[nH]c3cnc(OCCN4CCCCC4)cc32)CC1 [Example 90] ... < 50 nM
CC(C)NC(=O)[C@H]1CC[C@@H](n2/c(=N/C(=O)c3ccc(F)cc3)[nH]c3cnc(OC4CCN(C)CC4)cc32)CC1 [Example 169] ... < 50 nM
CC(C)NC(=O)[C@H]1CC[C@@H](n2/c(=N/C(=O)c3ccc(F)cc3)[nH]c3cnc(OCCN4CCC(C(C)(C)O)CC4)cc32)CC1 [Example 128] ... < 50 nM
C=CCNS(=O)(=O)c1cc(C(=O)Nc2nc3ccc(CO)cc3n2[C@H]2CC[C@@H](C(=O)OC)CC2)ccc1F [Example 27] ... 100 to 1000 nM
CC(C)NC[C@H]1CC[C@@H](n2/c(=N/C(=O)c3ccc(F)cc3)[nH]c3ccc(CN4CCCCC4)cc32)CC1 [Example 36] ... 100 to 1000 nM
CC(C)(O)C1CCN(Cc2ccc3[nH]/c(=N\C(=O)c4ccc(F)cc4)n([C@H]4CC[C@@H](C(=O)NC5CNC5)CC4)c3c2)CC1 [Example 243] ... < 50 nM
C[C@@H]1CNCCN1C(=O)[C@H]1CC[C@@H](n2/c(=N/C(=O)c3ccc(F)cc3)[nH]c3cnc(OCCN4CCCCC4)cc32)CC1 [Example 59] ... < 50 nM
CC(C)(O)C1CCN(CCOc2cc3c(cn2)[nH]/c(=N\C(=O)c2cccc(F)c2)n3[C@H]2CC[C@@H](C(=O)N3CC(F)(F)C3)CC2)CC1 [Example 80] ... < 50 nM
O=C(/N=c1\[nH]c2ccc(CN3CCCCC3)cc2n1C12CC3CC(CC(C3)C1)C2)c1ccccc1 [Example 16] ... 50 to 100 nM
COCCOCc1ccc2[nH]/c(=N\C(=O)c3ccc(F)cc3)n([C@H]3CC[C@@H](C(=O)NC(C)C)CC3)c2c1 [Example 198] ... < 50 nM

*Q* Entry O=C(/N=c1\[nH]c2ccc(CN3CCCCC3)cc2n1[C@H]1CC[C@@H](C(=O)N2CCNCC2)CC1)c1ccc(F)cc1 [Example 47] has what IC50?
*A* < 50 nM

*Q* Entry CC(=O)[C@H]1CC[C@@H](n2/c(=N/C(=O)c3cccc(F)c3)[nH]c3ccc(CN4CCC(C(C)(C)O)CC4)cc32)CC1 [Example 71] has what IC50?
*A* 100 to 1000 nM

*Q* Entry CC(C)NC(=O)[C@H]1CC[C@@H](n2/c(=N/C(=O)c3ccc(F)cc3)[nH]c3ccc(Cn4cnnc4)cc32)CC1 [Example 195] has what IC50?
*A* < 50 nM

----------
biological target: wild-type human ALK (cytoplasmic domain, amino acids 1058-1620, N-terminal GST fusion) (Homo sapiens); construct: The cytoplasmic domain (amino acids 1058-1620) of wild-type human ALK; GST (N); made in house; host or cells: SF9 insect cells; experiment: ALK Inhibition in Enzyme Assay (Lance TR-FRET kinase assay); assay type: biochemical
We begin with a simple list: items and their reported IC50.

Example compounds with recorded IC50:
CC(C)NC(=O)[C@H]1CC[C@@H](n2/c(=N/C(=O)c3cccc(S(C)(=O)=O)c3)[nH]c3cnc(OCCN4CCCCC4)cc32)CC1 [Example 93] ... 1 to 5 µM
CC(C)(O)C1CCN(CCOc2cc3c(cn2)[nH]/c(=N\C(=O)c2cccc(F)c2)n3[C@H]2CC[C@@H](C(=O)O)CC2)CC1 [Example 79] ... 1 to 5 µM
CC(C)NC(=O)[C@H]1CC[C@@H](n2/c(=N/C(=O)c3ccc(F)cc3)[nH]c3ccc(CN4CCC(C(O)C(F)(F)F)CC4)cc32)CC1 (stereo partly shown) [Example 186] ... < 0.05 µM
CC(C)(O)C1CCN(Cc2ccc3[nH]/c(=N\C(=O)c4ccc(F)cc4)n([C@H]4CC[C@@H](C(=O)O)CC4)c3c2)CC1 [Example 210] ... 0.1 to 1 µM
CC(C)NC(=O)[C@H]1CC[C@@H](n2/c(=N/C(=O)c3ccc(F)cc3)[nH]c3cnc(OCCCN4CCOCC4)cc32)CC1 [Example 165] ... < 0.05 µM
N#C[C@]1(c2cccc(Br)c2)C[C@@H](n2/c(=N/C(=O)c3ccc(F)cc3)[nH]c3cnc(OCCN4CCCCC4)cc32)C1 [Example 250] ... 0.1 to 1 µM
CCOC(=O)[C@H]1CC[C@@H](n2/c(=N/C(=O)c3ccc(F)cc3)[nH]c3ccc(CN4CCCCC4)cc32)CC1 [Example 8] ... < 0.05 µM
CC(C)NC(=O)[C@H]1CC[C@@H](n2/c(=N/C(=O)c3ccc(F)cc3)[nH]c3ccc(CN4CCC(F)(F)C4)cc32)CC1 [Example 196] ... < 0.05 µM

*Q* Entry CN(CC(=O)N1CCC(n2/c(=N/C(=O)c3ccccc3)[nH]c3cnc(OCCN4CCCCC4)cc32)CC1)C(=O)OC(C)(C)C [Example 76] has what IC50?
*A* 1 to 5 µM

*Q* Entry CC(C)NC(=O)[C@H]1CC[C@@H](n2/c(=N/C(=O)c3ccc(S(C)(=O)=O)cc3)[nH]c3cnc(OCCN4CCCCC4)cc32)CC1 [Example 120] has what IC50?
*A* 0.1 to 1 µM

*Q* Entry CC(C)NC(=O)[C@H]1CC[C@@H](n2c(N)nc3ccc(CN4CCC(C(C)(C)O)CC4)cc32)CC1 [Example 136] has what IC50?
*A* 1 to 5 µM

*Q* Entry CC(C)CN1CCC(n2/c(=N/C(=O)c3ccccc3)[nH]c3cnc(OCCN4CCCCC4)cc32)CC1 [Example 68] has what IC50?
*A* 5 to 10 µM

*Q* Entry CC(C)(C)NC(=O)[C@H]1CC[C@@H](n2/c(=N/C(=O)c3ccc(F)cc3)[nH]c3ccc(CN4CCC(C(C)(C)O)CC4)cc32)CC1 [Example 215] has what IC50?
*A* < 0.05 µM
